assay: Phase 1 pharmacokinetic study of a single oral dose of 20 mg E4 monohydrate in female subjects with normal hepatic function and mild, moderate or severe hepatic impairment (plasma, LC-MS/MS, non-compartmental analysis); type: in vivo, human; settings: female, human, plasma, po, 20 mg, Severe hepatic impairment; single oral dose 20 mg E4 monohydrate; plasma; read-out: T1/2, Mean (converted)
assay readout: half-life

[[record]]
entry_smiles = "C[C@]12CC[C@@H]3c4ccc(O)cc4CC[C@H]3[C@@H]1[C@@H](O)[C@@H](O)[C@@H]2O"
assay_readout = "half-life"
observed_result = "8.97 h"


* * *

assay: Phase 1 pharmacokinetic study of a single oral dose of 20 mg E4 monohydrate in female subjects with normal hepatic function and mild, moderate or severe hepatic impairment (plasma, LC-MS/MS, non-compartmental analysis); format: in vivo, human; conditions: female, human, plasma, po, 20 mg, Mild hepatic impairment; single oral dose 20 mg E4 monohydrate; plasma; read-out: Cmax, GM
assay readout: Cmax (ng/mL)

[[record]]
entry_smiles = "C[C@]12CC[C@@H]3c4ccc(O)cc4CC[C@H]3[C@@H]1[C@@H](O)[C@@H](O)[C@@H]2O"
observed_result = 34.5


* * *

assay: Phase 1 pharmacokinetic study of a single oral dose of 20 mg E4 monohydrate in female subjects with normal hepatic function and mild, moderate or severe hepatic impairment (plasma, LC-MS/MS, non-compartmental analysis); type: in vivo, human; conditions: female, human, plasma, po, 20 mg, Moderate hepatic impairment; single oral dose 20 mg E4 monohydrate; plasma; read-out: AUClast, GM
assay readout: AUC(0-t) (ng·h/mL)

[[record]]
compound = "C[C@]12CC[C@@H]3c4ccc(O)cc4CC[C@H]3[C@@H]1[C@@H](O)[C@@H](O)[C@@H]2O [E4]"
assay_readout = "AUC(0-t)"
uom = "ng·h/mL"
observed_result = 107


* * *

assay: Phase 1 pharmacokinetic study of a single oral dose of 20 mg E4 monohydrate in female subjects with normal hepatic function and mild, moderate or severe hepatic impairment (plasma, LC-MS/MS, non-compartmental analysis); type: in vivo, human; conditions: female, human, plasma, po, 20 mg, Normal (Reference); one-way ANOVA; single oral dose 20 mg; read-out: AUCinf, Geometric LS Mean
assay readout: AUC(0-inf) (ng·h/mL)

[[record]]
entry_smiles = "C[C@]12CC[C@@H]3c4ccc(O)cc4CC[C@H]3[C@@H]1[C@@H](O)[C@@H](O)[C@@H]2O"
assay_readout = "AUC(0-inf)"
observed_result = 104


* * *

assay: Phase 1 pharmacokinetic study of a single oral dose of 20 mg E4 monohydrate in female subjects with normal hepatic function and mild, moderate or severe hepatic impairment (plasma, LC-MS/MS, non-compartmental analysis); type: in vivo, human; conditions: female, human, plasma, po, 20 mg, Mild hepatic impairment; single oral dose 20 mg E4 monohydrate; plasma; read-out: Vz/F, Median
assay readout: Vd/F (L)

[[record]]
entry_smiles = "C[C@]12CC[C@@H]3c4ccc(O)cc4CC[C@H]3[C@@H]1[C@@H](O)[C@@H](O)[C@@H]2O"
assay_readout = "Vd/F"
uom = "L"
observed_result = 4800


* * *

test: Phase 1 pharmacokinetic study of a single oral dose of 20 mg E4 monohydrate in female subjects with normal hepatic function and mild, moderate or severe hepatic impairment (plasma, LC-MS/MS, non-compartmental analysis); format: in vivo, human; conditions: female, human, plasma, po, 20 mg, Moderate hepatic impairment; single oral dose 20 mg E4 monohydrate; plasma; read-out: AUC0-24 h, Median
assay readout: AUC(0-t) (ng·h/mL)

[[record]]
compound = "C[C@]12CC[C@@H]3c4ccc(O)cc4CC[C@H]3[C@@H]1[C@@H](O)[C@@H](O)[C@@H]2O [E4]"
assay_readout = "AUC(0-t)"
observed_result = 92.6


* * *

assay: Phase 1 pharmacokinetic study of a single oral dose of 20 mg E4 monohydrate in female subjects with normal hepatic function and mild, moderate or severe hepatic impairment (plasma, LC-MS/MS, non-compartmental analysis); format: in vivo, human; details: female, human, plasma, po, 20 mg, Normal hepatic function; single oral dose 20 mg E4 monohydrate; plasma; read-out: Vz/F, Mean
assay readout: Vd/F (L)

[[record]]
compound = "C[C@]12CC[C@@H]3c4ccc(O)cc4CC[C@H]3[C@@H]1[C@@H](O)[C@@H](O)[C@@H]2O [E4]"
assay_readout = "Vd/F"
uom = "L"
observed_result = 6590


* * *

test: Phase 1 pharmacokinetic study of a single oral dose of 20 mg E4 monohydrate in female subjects with normal hepatic function and mild, moderate or severe hepatic impairment (plasma, LC-MS/MS, non-compartmental analysis); assay type: in vivo, human; conditions: female, human, plasma, po, 20 mg, Normal (Reference); one-way ANOVA; single oral dose 20 mg; read-out: Cmax, Geometric LS Mean
assay readout: Cmax (ng/mL)

[[record]]
entry_smiles = "C[C@]12CC[C@@H]3c4ccc(O)cc4CC[C@H]3[C@@H]1[C@@H](O)[C@@H](O)[C@@H]2O"
assay_readout = "Cmax"
observed_result = 20.8


* * *

assay: Phase 1 pharmacokinetic study of a single oral dose of 20 mg E4 monohydrate in female subjects with normal hepatic function and mild, moderate or severe hepatic impairment (plasma, LC-MS/MS, non-compartmental analysis); type: in vivo, human; settings: female, human, plasma, po, 20 mg, Mild hepatic impairment; single oral dose 20 mg E4 monohydrate; plasma; read-out: AUClast, Median
assay readout: AUC(0-t) (ng·h/mL)

[[record]]
entry_smiles = "C[C@]12CC[C@@H]3c4ccc(O)cc4CC[C@H]3[C@@H]1[C@@H](O)[C@@H](O)[C@@H]2O"
assay_readout = "AUC(0-t)"
observed_result = 105


* * *

Assay: Phase 1 pharmacokinetic study of a single oral dose of 20 mg E4 monohydrate in female subjects with normal hepatic function and mild, moderate or severe hepatic impairment (plasma, LC-MS/MS, non-compartmental analysis)
Type: in vivo, human
Conditions: female, human, plasma, po, 20 mg, Normal hepatic function; single oral dose 20 mg E4 monohydrate; plasma; read-out: AUCinf, Median
Experimental: This was a Phase 1, multi-centre, open-label, PK, and safety study of a single oral dose of 20 mg E4 monohydrate in female subjects with normal hepatic function (Group 1), mild hepatic impairment (Group 2), moderate hepatic impairment (Group 3), and severe hepatic impairment (Group 4), as defined using the Child-Pugh classification at Screening. […] PK parameters were calculated by non-compartmental analysis. […]
assay readout: AUC(0-inf) (ng·h/mL)

[[record]]
compound = "C[C@]12CC[C@@H]3c4ccc(O)cc4CC[C@H]3[C@@H]1[C@@H](O)[C@@H](O)[C@@H]2O [E4]"
uom = "ng·h/mL"
observed_result = 113


* * *

assay: Phase 1 pharmacokinetic study of a single oral dose of 20 mg E4 monohydrate in female subjects with normal hepatic function and mild, moderate or severe hepatic impairment (plasma, LC-MS/MS, non-compartmental analysis); format: in vivo, human; details: female, human, plasma, po, 20 mg, Moderate hepatic impairment; single oral dose 20 mg E4 monohydrate; plasma; read-out: AUCinf, Mean
assay readout: AUC(0-inf) (µg·h/mL)

[[record]]
compound = "C[C@]12CC[C@@H]3c4ccc(O)cc4CC[C@H]3[C@@H]1[C@@H](O)[C@@H](O)[C@@H]2O [E4]"
assay_readout = "AUC(0-inf)"
uom = "µg·h/mL"
observed_result = 0.123


* * *

test: Phase 1 pharmacokinetic study of a single oral dose of 20 mg E4 monohydrate in female subjects with normal hepatic function and mild, moderate or severe hepatic impairment (plasma, LC-MS/MS, non-compartmental analysis); assay type: in vivo, human; settings: female, human, plasma, po, 20 mg, Severe hepatic impairment; single oral dose 20 mg E4 monohydrate; plasma; read-out: AUC0-24 h, GM
assay readout: AUC(0-t) (ng·h/mL)

[[record]]
entry_smiles = "C[C@]12CC[C@@H]3c4ccc(O)cc4CC[C@H]3[C@@H]1[C@@H](O)[C@@H](O)[C@@H]2O"
assay_readout = "AUC(0-t)"
observed_result = 179


* * *

assay: Phase 1 pharmacokinetic study of a single oral dose of 20 mg E4 monohydrate in female subjects with normal hepatic function and mild, moderate or severe hepatic impairment (plasma, LC-MS/MS, non-compartmental analysis); type: in vivo, human; conditions: female, human, plasma, po, 20 mg, Mild hepatic impairment; single oral dose 20 mg E4 monohydrate; plasma; read-out: AUClast, GM
assay readout: AUC(0-t) (ng·h/mL)

[[record]]
entry_smiles = "C[C@]12CC[C@@H]3c4ccc(O)cc4CC[C@H]3[C@@H]1[C@@H](O)[C@@H](O)[C@@H]2O"
assay_readout = "AUC(0-t)"
observed_result = 116


* * *

assay: Phase 1 pharmacokinetic study of a single oral dose of 20 mg E4 monohydrate in female subjects with normal hepatic function and mild, moderate or severe hepatic impairment (plasma, LC-MS/MS, non-compartmental analysis); format: in vivo, human; settings: female, human, plasma, po, 20 mg, Moderate hepatic impairment; single oral dose 20 mg E4 monohydrate; plasma; read-out: Vz/F, Mean
assay readout: Vd/F (L)

[[record]]
entry_smiles = "C[C@]12CC[C@@H]3c4ccc(O)cc4CC[C@H]3[C@@H]1[C@@H](O)[C@@H](O)[C@@H]2O"
observed_result = 4760

